Source: ChEMBL document CHEMBL3352593

- Tested on: Liver
- measurement-notes: Drug level in balb/c mouse liver at 15 nmol, ip after 24 hrs by liquid scintillation counting method
- Type: ADME, organism-based
- cond: in vivo
quantity: Drug uptake

The compound identified as CC(=O)N[C@H](CCNC(=O)c1cc(NC(=O)c2cc(NC(=O)c3cc(NC(=O)c4nccn4C)cn3C)cn2C)cn1C)C(=O)Nc1cnc(C(=O)Nc2cc(C(=O)Nc3cc(C(=O)Nc4cc(C(=O)NCCCN(C)CCCN[14C](=O)c5cccc([14C](=O)O)c5)n(C)c4)n(C)c3)n(C)c2)n1C registered its Drug uptake at 0.49 mg/kg
